Test system: CEM cells HIV-1 protection, formazan growth assay
Assay Explanation: NCI AIDS Antiviral Assay
pEC50: −log10 of the molar value.
We begin with a simple list: items and their reported pEC50.
Measurement Type: pEC50

>>> result("COc1ccc(C2(CC(C)C)CCN(S(=O)(=O)c3ccc(C)cc3)C2)cc1OC (centres undefined)")
"< 3.75"
>>> result("CCCCN(CCCC)/N=C/c1c2c(O)c3c(O)c(C)c4c(c3c1O)C(=O)C(C)(O/C=C/C(OC)C(C)C(OC(C)=O)C(C)C(O)C(C)C(O)C(C)/C=C/C=C(C)C(=O)N2)O4 (centres undefined)")
"< 3.70"
>>> result("O=C(O)Cc1cccc2c(=O)c(-c3ccccc3)coc12")
"< 3.70"
>>> result("C[N+]1(C)CCCC1C(=O)[O-] (centres undefined)")
"< 2.76"
>>> result("CCOc1ccccc1N=NC1C(=O)N(C(=O)CC(=O)Nc2ccccc2Cl)N=C1C (centres undefined)")
"< 3.70"
>>> result("CC(=O)c1ccc2c(c1)N(CCCN1CCN(CCO)CC1)c1ccccc1S2")
"< 3.70"
>>> result("CC(C)C1CC(CO)(CNc2nc(N)nc(Cl)c2/C=N\\O)C1 (centres undefined)")
"< 4.70"
>>> result("CC(C)COC(=O)N1N=NC2C3CC(=O)C(O3)C21 (centres undefined)")
"< 3.15"
>>> result("COC(=O)c1ccccc1NC(=O)/C(=N\\NC(C)(C)C)C(C#N)c1nc(-c2ccc([N+](=O)[O-])cc2)cs1 (centres undefined)")
"< 4.16"
